- System: P. falciparum 3D7 parasites
- experimental-details: Metabolomic profiling of compound-treated parasites (LC/MS)
- Format: cell-based
- Procedure: The metabolite extraction protocol was performed as described elsewhere ([Allman et al., 2016]). Briefly, 1 mL of trophozoites that were magnetically purified to a concentration of 1×10^8 parasites/mL were placed into wells with 4 mL of RPMI 1640 media and allowed to recover for one hour. […] The culture was incubated for another 2.5 hr. The culture was centrifuged and quenched with 90% methanol containing 0.25 μM ^13C,^15N-Labeled-Aspartate, vortexed, and centrifuged. […]
Metabolite data: NADPH below 0.3 gives criterion not met; Metabolite data: NADPH at or above it gives criterion met.

> print(dat)
                                   compound           category
1  O=C1C(O)=C([C@H]2CC[C@H](c3ccc(Cl)cc3)CC2)C(=O)c2ccccc21 [Atovaquone, reference compound]      criterion met
2           Cc1cc(Nc2ccc3ccccc3c2)n2ncnc2n1  criterion not met
3  COc1cc2[nH]c(C)c(-c3ccc(Oc4ccc(OC(F)(F)F)cc4)cc3)c(=O)c2cc1Cl      criterion met
4           O=C(NNC(=O)c1csnn1)c1ccc(Cl)cc1  criterion not met
5  N#Cc1cc(NC(=O)[C@H]2c3ccccc3C(=O)N(CC(F)(F)F)[C@@H]2c2cccnc2)ccc1F      criterion met

Qu. Could you verify whether the entry CCc1nc(N)nc(N)c1-c1ccc(Cl)cc1 shows Metabolite data: NADPH of no less than 0.3?
Ans. criterion met

Qu. Textbook exercise: given the entry CCN(CC)S(=O)(=O)c1ccc(Cl)c(C(=O)Nc2ccc3nc(C)sc3c2)c1 , state whether its Metabolite data: NADPH is greater than or equal to 0.3.
Ans. criterion met

Qu. Entry C[C@H]1Cc2c([nH]c3cc(Cl)c(F)cc23)[C@@]2(N1)C(=O)Nc1ccc(Cl)cc12 : is its Metabolite data: NADPH no less than 0.3?
Ans. criterion met

Qu. Does the reported Metabolite data: NADPH for CC1(C)N=C(N)N=C(N)N1OCCCOc1cc(Cl)c(Cl)cc1Cl fall at or above the 0.3 mark?
Ans. criterion met

---

- Test system: P. falciparum 3D7 parasites
- experimental-details: Metabolomic profiling of compound-treated parasites (LC/MS)
- Assay type: cell-based
parameter: Metabolite data: Citrate/Isocitrate
When you answer, write just the number.

> print(dat)
                        compound                 assay.target  obs.value
1  CCc1nc(N)nc(N)c1-c1ccc(Cl)cc1  P. falciparum 3D7 parasites    -0.2585

Qu. For the compound N#Cc1cc(NC(=O)[C@H]2c3ccccc3C(=O)N(CC(F)(F)F)[C@@H]2c2cccnc2)ccc1F , what Metabolite data: Citrate/Isocitrate is on record?
Ans. 0.1284

Qu. Give the measured Metabolite data: Citrate/Isocitrate of CC1(C)N=C(N)N=C(N)N1OCCCOc1cc(Cl)c(Cl)cc1Cl .
Ans. 0.01

Qu. Would you kindly share the measured Metabolite data: Citrate/Isocitrate for Cc1cc(Nc2ccc3ccccc3c2)n2ncnc2n1 ?
Ans. -0.6885

Qu. Looking for the measured Metabolite data: Citrate/Isocitrate of COc1cc2[nH]c(C)c(-c3ccc(Oc4ccc(OC(F)(F)F)cc4)cc3)c(=O)c2cc1Cl , can you help?
Ans. 0.1898

Qu. Consider the compound shown here: O=C(NNC(=O)c1csnn1)c1ccc(Cl)cc1 What is its recorded Metabolite data: Citrate/Isocitrate?
Ans. -0.25

Qu. Return reported Metabolite data: Citrate/Isocitrate; argument: C[C@H]1Cc2c([nH]c3cc(Cl)c(F)cc23)[C@@]2(N1)C(=O)Nc1ccc(Cl)cc12
Ans. 0.19

Qu. # get_value(readout='Metabolite data: Citrate/Isocitrate', item= O=C1C(O)=C([C@H]2CC[C@H](c3ccc(Cl)cc3)CC2)C(=O)c2ccccc21 [Atovaquone, reference compound] )
Ans. -0.17

Qu. Given the compound CCN(CC)S(=O)(=O)c1ccc(Cl)c(C(=O)Nc2ccc3nc(C)sc3c2)c1 , what is its reported Metabolite data: Citrate/Isocitrate?
Ans. 0.04997
